The reported measurements were obtained from patent US7893074B2.

IC50 values for the molecules below.
Measured target: FAK (Mus musculus, UniProt P34152)
Sequence (P34152 2-1052): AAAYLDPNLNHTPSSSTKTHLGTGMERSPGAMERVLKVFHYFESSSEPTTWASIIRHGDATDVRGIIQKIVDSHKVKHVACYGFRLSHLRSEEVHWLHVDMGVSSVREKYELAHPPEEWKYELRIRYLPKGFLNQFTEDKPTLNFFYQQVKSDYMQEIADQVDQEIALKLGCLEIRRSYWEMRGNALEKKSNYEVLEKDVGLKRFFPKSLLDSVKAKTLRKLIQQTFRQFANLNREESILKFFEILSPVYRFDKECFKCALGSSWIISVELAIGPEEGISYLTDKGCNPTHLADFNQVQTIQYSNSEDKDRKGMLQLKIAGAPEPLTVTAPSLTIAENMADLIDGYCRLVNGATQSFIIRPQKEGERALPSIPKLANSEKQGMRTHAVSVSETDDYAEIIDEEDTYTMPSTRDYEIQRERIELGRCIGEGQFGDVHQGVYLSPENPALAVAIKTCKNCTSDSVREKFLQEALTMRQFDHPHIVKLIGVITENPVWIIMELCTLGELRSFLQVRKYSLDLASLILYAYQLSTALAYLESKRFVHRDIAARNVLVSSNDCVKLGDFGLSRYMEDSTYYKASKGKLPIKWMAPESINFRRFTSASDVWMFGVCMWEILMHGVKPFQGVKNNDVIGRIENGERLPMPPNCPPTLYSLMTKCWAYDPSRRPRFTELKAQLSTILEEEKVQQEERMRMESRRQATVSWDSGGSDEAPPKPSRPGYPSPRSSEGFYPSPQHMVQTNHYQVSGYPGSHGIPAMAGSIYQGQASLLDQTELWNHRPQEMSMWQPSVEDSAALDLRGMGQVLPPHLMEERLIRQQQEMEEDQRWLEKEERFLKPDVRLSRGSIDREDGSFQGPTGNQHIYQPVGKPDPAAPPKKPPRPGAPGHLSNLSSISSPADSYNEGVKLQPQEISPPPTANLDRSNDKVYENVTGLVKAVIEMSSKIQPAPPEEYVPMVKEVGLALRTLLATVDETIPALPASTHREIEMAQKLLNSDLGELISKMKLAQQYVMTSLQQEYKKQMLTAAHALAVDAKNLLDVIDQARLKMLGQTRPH
Assay details: Phos IC50 (phosphorylation)
Please respond with the number in nM and leave the unit unwritten.

INSERT INTO results (molecule, measurement_name, recorded_measurement) VALUES
  ('CCCS(=O)(=O)c1ccccc1Nc1nc(Nc2ccc(N3CCC(N(C)C)C3)cc2OC)ncc1Cl (stereo not shown) [Example 26-24]', 'IC50', 500);

GET /values?readout=IC50&item= CNS(=O)(=O)c1ccccc1Nc1nc(Nc2cc(N3CCC(N4CCCCC4)CC3)ccc2OC)ncc1Br [Example 3-69] 200

----------
Measured target: Focal Adhesion Kinase (FAK) (Homo sapiens, UniProt Q05397)
Sequence (Q05397 384-706): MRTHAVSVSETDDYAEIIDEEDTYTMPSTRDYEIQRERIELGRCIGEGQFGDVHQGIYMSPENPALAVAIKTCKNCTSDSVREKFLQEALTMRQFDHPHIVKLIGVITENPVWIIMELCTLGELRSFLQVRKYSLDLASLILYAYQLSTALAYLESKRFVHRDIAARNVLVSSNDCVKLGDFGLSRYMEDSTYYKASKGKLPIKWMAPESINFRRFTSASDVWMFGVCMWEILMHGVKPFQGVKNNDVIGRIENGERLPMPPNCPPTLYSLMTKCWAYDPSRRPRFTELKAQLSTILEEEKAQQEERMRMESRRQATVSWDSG
Assay details: FAK assay system (Focal Adhesion Kinase inhibition)
Format: biochemical
Applied conditions: read-out: FAK IC50
log10 IC50 values for the compounds below.
Scale: decimal log of IC50, IC50 in nM.

Worked examples follow.
INSERT INTO results (compound, recorded_measurement) VALUES
  ('CCCS(=O)(=O)c1ccccc1Nc1nc(Nc2ccc(N3CCC(O)CC3)cc2OC)ncc1Cl [Example 26-4]', 0.69),
  ('CNS(=O)(=O)c1ccccc1Nc1nc(Nc2cc(C(C)C)ccc2C)ncc1Br [Example 3-18]', 2.11),
  ('CC(C)NS(=O)(=O)c1ccccc1Nc1nc(Nc2ccc(OC3CCN(C)CC3)cc2F)ncc1Cl [Example 19-28]', 0.68);

GET /values?readout=log10 IC50&item= CNS(=O)(=O)c1ccccc1Nc1nc(Nc2cc(F)ccc2OC)ncc1Br [Example 3-81] 1.32

Next compound up: CNc1ccccc1Nc1ncc(Br)c(Nc2ccccc2S(=O)(=O)NC)n1 [Example 3-8] 1.87

Next compound up: CCS(=O)(=O)c1ccccc1Nc1nc(Nc2ccc(N3CCC(N4CCOCC4)CC3)cc2OC)ncc1Cl [Example 27-4] 1.04

Next compound up: CNS(=O)(=O)c1ccccc1Nc1nc(Nc2ccc(N3CCC(N4CCN(C)CC4)CC3)cc2OC)ncc1Cl [Example 20-16] 0.88

Next compound up: CNS(=O)(=O)c1ccccc1Nc1nc(Nc2ccccc2OC)ncc1Br [Example 3-6] 1.11
